Provenance of the data: patent US20030148264A1

- measured target: hZO1 PDZ1 (Homo sapiens, UniProt Q07157)
- Construct: Human ZO1 (NM_003257) PDZ1; GST; made in house
- Sequence (Q07157 23-110): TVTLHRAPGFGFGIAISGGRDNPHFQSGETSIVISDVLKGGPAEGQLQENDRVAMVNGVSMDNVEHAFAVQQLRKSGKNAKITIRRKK
- run description: IC50 (nM) | hZO1 PDZ1 | 5 nM | B01-88 | Bio-GGWRWTTWL (SEQ ID NO: 684) | 36 nM
Where no end group is shown, it is not given here.
endpoint name: IC50

- Ac-WRWTTWL [9 | 01-103, SEQ ID NO: 648: N^AC-WRWTTWL]: 27 nM
- Ac-YRWTTWL [10 | 01-28, SEQ ID NO: 649: N^AC-YRWTTWL]: 31 nM
- Ac-WRWTTWV [13 | 01-31, SEQ ID NO: 652: N^AC-WRWTTWV]: 0.0443 nM

* * *

IC50: recorded values
- measured target: Erbin PDZ (Homo sapiens, UniProt Q96RT1)
- Construct: made in house; host or cells: E. coli
- Sequence (Q96RT1 1258-1412): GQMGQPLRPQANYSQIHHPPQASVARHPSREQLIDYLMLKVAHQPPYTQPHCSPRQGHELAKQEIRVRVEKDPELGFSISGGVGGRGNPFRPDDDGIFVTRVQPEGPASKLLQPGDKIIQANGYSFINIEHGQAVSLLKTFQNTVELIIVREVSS
- run description: IC50 (nM) | Erbin PDZ | 2 nM | PDZ501 | Bio-Ac-GGWETWV (SEQ ID NO 687) | 37 nM
Where no end group is shown, it is not given here.
endpoint name: IC50

• Ac-WRHTTWL [11 | 01-29, EQ ID NO 650 N^AC-WRHTTWL] = 52400 nM
• AWFDTDL [2 | 01-61, SEQ ID NO 641 AWFDTDL] = 25400 nM
• Ac-WRWTTWV [13 | 01-31, EQ ID NO 652 N^AC-WRWTTWV] = 789 nM
• Ac-WGWTTWL [12 | 01-30, EQ ID NO 651 N^AC-WGWTTWL] = 35500 nM
